# system tested: KRAS wt(8-16) peptide … with HLA-A11 and b2M on peptide-pulsed MINO cells (human)
# assay comment: flow cytometry, phage-displayed scFv on peptide-pulsed MINO cells (FIG. 10)

binder: KRAS_G12D_A11_c112 (scFv) scFv: DIQMTQSPSSLSASVGDRVTITCRASQDVNTAVAWYQQKPGKAPKLLIYSASFLYSGVPSRFSGSRSGTDFTLTISSLQPEDFATYYCQQYSYMPITFGQGTKVEIKRTGGGSGGGGSGGGASEVQLVESGGGLVQPGGSLRLSCAASGFNISYQHIHWVRQAPGKGLEWVAVFMPYQGSTYYADSVKGRFTISADTSKNTAYLQMNSLRAEDTAVYYCSRANIYSSHSFFDYWGQGTLVTVSS
binding result: no binding
--
binder: KRAS_G12D_A11_c110 (scFv) scFv: DIQMTQSPSSLSASVGDRVTITCRASQDVNTAVAWYQQKPGKAPKLLIYSASFLYSGVPSRFSGSRSGTDFTLTISSLQPEDFATYYCQQYEYVPHTFGQGTKVEIKRTGGGSGGGGSGGGASEVQLVESGGGLVQPGGSLRLSCAASGFNISYGYMHWVRQAPGKGLEWVAKFHYGSGNTYYADSVKGRFTISADTSKNTAYLQMNSLRAEDTAVYYCSRSNYYYLDYWGQGTLVTVSS
binding result: no binding
--
binder: KRAS_G12D_A11_c16 (scFv) scFv: DIQMTQSPSSLSASVGDRVTITCRASQDVNTAVAWYQQKPGKAPKLLIYSASFLYSGVPSRFSGSRSGTDFTLTISSLQPEDFATYYCQQYSYSPITFGQGTKVEIKRTGGGSGGGGSGGGASEVQLVESGGGLVQPGGSLRLSCAASGFNISDSYMHWVRQAPGKGLEWVATFSPYSSNTWYADSVKGRFTISADTSKNTAYLQMNSLRAEDTAVYYCSRSQFTFYQYFDYWGQGTLVTVSS
binding result: no binding
